system: T-47D breast; assay: NCI-60 one-dose screen, 48 h; settings: 10 µM unless noted
This is part of a sample that, as a whole, favours compounds with a hit. Of some 83,000 tested, about 20% had one in any assay. Activity calls are given as the source filed them. How the source made its calls: active means growth percent below 10; inactive means the rest.
Choose the fitting class; nothing outside active, inactive is accepted.

CC(O)CN1CCCCC1 (stereo not given) :: inactive

Request: What was the test verdict on `C=CCn1cc(-c2nc3ccccc3s2)c2cc(-c3ccc4c5c(cccc35)C(=O)N(CCN3CCNCC3)C4=O)ccc21` ?
Response: inactive

Request: Moving on to the next compound: `O=C(Nc1cccc(-n2cc(-c3ccncc3)c(-c3ccc(Cl)c(O)c3)n2)c1)c1ccc(N2CCOCC2)c(C(F)(F)F)c1`
Response: inactive

Request: And what about the compound `COc1cc(/C=C/C(=O)/C=C/c2cc(OC)c3c(c2)OCO3)cc2c1OCO2` ?
Response: inactive

Request: Similarly, `C=C1CCC[C@]2(C)CCC[C@H](C)[C@@H](OC(C)=O)[C@@H]3OC(=O)C(=C)[C@@H]3C[C@H]1O2` ?
Response: inactive

Request: Do the same for `Cc1cc(N/N=C/c2nc(-c3ccc(Br)cc3)oc2C)c2cc(Br)ccc2n1` please
Response: inactive
